pIC50 data for Wild Type ALK kinase (Homo sapiens, UniProt Q9UM73) follow.
pIC50: −log10 of the molar value.
reported_endpoint: pIC50

>>> print(df.to_string())
                                    compound  reported
 0  Cc1cc(Nc2ncc(Cl)c(Nc3cn(C)nc3S(=O)(=O)CC(C)C)n2)c(OC2CC2)cc1[C@H]1CC[C@H](NC2CC2)CC1      7.46
 1  CC(C)S(=O)(=O)c1nn(C)cc1Nc1nc(Nc2ccc(C3CCN(S(C)(=O)=O)C3)cc2OC2CC2)ncc1Cl (centres unmarked)      8.10
 2  CC(C)S(=O)(=O)c1nn(C)cc1Nc1nc(Nc2cc(F)c(C3CCNC3)cc2OC2CC2)ncc1Cl (centres unmarked)      8.05
 3  Cc1cc(Nc2nc(Nc3cc(C)c([C@H]4CC[C@H](N5CCN(C)CC5)CC4)cc3F)ncc2Cl)[nH]n1 [Final product 218, reference compound]      7.57
 4  Cc1cc(Nc2ncc(Cl)c(Nc3cn(C)nc3S(=O)(=O)C(C)C)n2)c(OC2CC2)cc1C1CCOCC1      8.05
 5  Cc1cc(Nc2nc(Nc3cc(C)c(C4CCN(C(C)C)CC4)cc3C)ncc2Cl)n[nH]1 [Final product 213, reference compound]      7.72
 6  CC(C)CS(=O)(=O)c1nn(C)cc1Nc1nc(Nc2ccc(C3CCNCC3)cc2OC2CC2)ncc1Cl      7.96
 7  Cc1cc(Nc2ncc(Cl)c(Nc3cn(C)nc3S(=O)(=O)C(C)C)n2)c(OC2CC2)cc1[C@H]1CC[C@H](NC2CC2)CC1      8.05
 8  CC(C)S(=O)(=O)c1nn(C)cc1Nc1nc(Nc2ccc(C3CCNCC3)cc2OC2CC2)ncc1Cl      8.52
 9  CC(C)S(=O)(=O)c1nn(C)cc1Nc1nc(Nc2cc(F)c(C3CCN(C)CC3)cc2OC2CC2)ncc1Cl      8.52
10  CC(C)S(=O)(=O)c1nn(C)cc1Nc1nc(Nc2ccc(C3CCN(C)CC3)cc2OC2CC2)ncc1Cl      8.52
11  Cc1cc(Nc2ncc(Cl)c(Nc3cn(C)nc3S(=O)(=O)CC(C)C)n2)c(OC2CC2)cc1C1CCN(C)CC1      8.15
12  Cc1cc(Nc2ncc(Cl)c(Nc3cn(C)nc3S(=O)(=O)C(C)C)n2)c(OC(C)C)cc1C1CCN(C(C)C)CC1      8.15
13  Cc1cc(Nc2ncc(Cl)c(Nc3cn(C)nc3S(=O)(=O)C(C)C)n2)c(OC2CC2)cc1C1CN(S(C)(=O)=O)C1      7.40
14  CC(C)CS(=O)(=O)c1nn(C)cc1Nc1nc(Nc2ccc(C3CCNC3)cc2OC2CC2)ncc1Cl (centres unmarked)      8.70
15  CC(C)S(=O)(=O)c1nn(C)cc1Nc1nc(Nc2ccc(C3CCNCC3)cc2OC(F)(F)F)ncc1Cl      7.80
16  CC(C)Oc1cc(C2CCNCC2)ccc1Nc1ncc(Cl)c(Nc2cn(C)nc2S(=O)(=O)C(C)C)n1      8.40
17  CC(C)S(=O)(=O)c1nn(C2CC2)cc1Nc1nc(Nc2ccc(C3CCN(C)CC3)cc2OC2CC2)ncc1Cl      9.00
18  Cc1nc(S(=O)(=O)C(C)C)c(Nc2nc(Nc3cc(C)c(C4CCN(C)CC4)cc3OC3CC3)ncc2Cl)s1      8.22
19  CC(=O)N1CCN([C@H]2CC[C@H](c3cc(OC4CC4)c(Nc4ncc(Cl)c(Nc5cn(C)nc5S(=O)(=O)C(C)C)n4)cc3C)CC2)CC1      8.15
20  Cc1cc(Nc2ncc(Cl)c(Nc3cn(C)nc3S(=O)(=O)C(C)C)n2)c(OC2CC2)cc1C1CCN(CCN(C)C)CC1      8.70
21  Cc1cc(Nc2ncc(Cl)c(Nc3cn(C)nc3S(=O)(=O)C(C)C)n2)c(OC2CC2)cc1C1CCN(C(C)C)CC1      8.70
22  Cc1cc(Nc2ncc(Cl)c(Nc3cn(C)nc3S(=O)(=O)CC(C)C)n2)c(OC(C)C)cc1C1CN(C)C1      8.10
23  Cc1cc(Nc2ncc(Cl)c(Nc3cn(C)nc3S(=O)(=O)C(C)C)n2)c(OC2CC2)cc1C1CCN(CCO)CC1      8.70
24  Cc1cc(Nc2ncc(Cl)c(Nc3cn(C)nc3S(=O)(=O)C(C)C)n2)c(OC2CC2)cc1C1=CCNCC1      8.70
25  Cc1cc(Nc2ncc(Cl)c(Nc3cn(C)nc3S(=O)(=O)C(C)C)n2)c(OC2CC2)cc1C1CCN(C)CC1F (centres unmarked)      8.22
